- Tested on: HT-29
- experimental_details: Tumor cell cytotoxicity assay, colon
- Assay type: cell-based
- details: concentration causing 50% cytotoxicity
# strict inequality: Colon HT-29 (ED50) < 3 µg/mL yields yes, everything else yields no

compound | assigned_label
COc1ccc(NNC2CCC3(C)C(CCC4(C)C3CCC3C5C(C(C)C)CCC5(C(=O)O)CCC34C)C2(C)C)cc1 (stereo not shown) | yes
CC(C)C1CCC2(C(=O)O)CCC3(C)C(CCC4C5(C)CCC(OC(=O)c6ccc(F)cc6F)C(C)(C)C5CCC43C)C12 (stereo not shown) | yes
CC(C)C1CCC2(C(=O)O)CCC3(C)C(CCC4C5(C)CCC(=NOCc6ccc([N+](=O)[O-])cc6)C(C)(C)C5CCC43C)C12 (stereo not shown) | yes
C=CC(=O)OC(=O)C12CCC(C(C)C)C1C1CCC3C4(C)CCC(O)C(C)(C)C4CCC3(C)C1(C)CC2 (stereo not shown) | no

Inquiry: Decide: Colon HT-29 (ED50) of C=C(C)C1CCC2(C(=O)O)CCC3(C)C(CCC4C5(C)CCC(OC(=O)c6cccc(C(F)(F)F)c6)C(C)(C)C5CCC43C)C12 (stereo not shown) strictly below 3 µg/mL?
Reply text: no

Inquiry: Threshold test, Colon HT-29 (ED50) < 3 µg/mL: C=CC(=O)OC(=O)C12CCC(C(=C)C)C1C1CCC3C4(C)CCC(O)C(C)(C)C4CCC3(C)C1(C)CC2 (stereo not shown)
Reply text: no

Inquiry: In plain terms, does CC(C)C1CCC2(C(=O)O)CCC3(C)C(CCC4C5(C)CCC(N=Cc6ccc(F)c(F)c6)C(C)(C)C5CCC43C)C12 (stereo not shown) come in under 3 µg/mL for Colon HT-29 (ED50)?
Reply text: no

Values from patent US6403816B1
